Hey, just so you know, these numbers are from patent US20210000912A1.

Molecular target: c-Src (h) (Homo sapiens, UniProt P12931)
Construct: purchased Eurofins Pharma Discovery Services UK Ltd (contract assay service)
Sequence (P12931 whole entry): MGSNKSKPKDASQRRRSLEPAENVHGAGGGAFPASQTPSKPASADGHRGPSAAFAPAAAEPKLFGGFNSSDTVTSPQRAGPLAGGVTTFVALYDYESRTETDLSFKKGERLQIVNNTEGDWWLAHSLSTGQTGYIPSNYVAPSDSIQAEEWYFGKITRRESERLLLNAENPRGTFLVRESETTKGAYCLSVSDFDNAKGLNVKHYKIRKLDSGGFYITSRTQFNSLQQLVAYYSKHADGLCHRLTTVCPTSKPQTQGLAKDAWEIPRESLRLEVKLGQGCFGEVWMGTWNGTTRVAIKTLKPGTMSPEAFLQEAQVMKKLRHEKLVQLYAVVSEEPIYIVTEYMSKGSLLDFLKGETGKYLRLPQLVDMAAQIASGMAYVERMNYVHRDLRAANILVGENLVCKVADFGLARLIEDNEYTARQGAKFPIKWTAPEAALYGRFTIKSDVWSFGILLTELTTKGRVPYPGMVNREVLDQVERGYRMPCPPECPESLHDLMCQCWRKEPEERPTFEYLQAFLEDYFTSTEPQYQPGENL
Assay: c-Src kinase activity assay, cell free
Format: biochemical
Settings: cell free, 40 minutes at room temperature; read-out: c-Src IC50
readout label: IC50
Reply with a number, then the unit it belongs to.

Completed entries (count: 3):
- mol: "N=C(N)NCCC[C@H](NC(=O)[C@H](CCCNC(=N)N)NC(=O)[C@H](CCCNC(=N)N)NC(=O)[C@H](CCCNC(=N)N)NC(=O)[C@H](CCCNC(=N)N)NC(=O)[C@@H](N)CCCNC(=N)N)C(N)=O"
  IC50: "100 nM"
- mol: "N=C(N)NCCC[C@H](NC(=O)[C@H](CCCNC(=N)N)NC(=O)[C@H](CCCNC(=N)N)NC(=O)[C@H](CCCNC(=N)N)NC(=O)[C@H](CCCNC(=N)N)NC(=O)[C@H](CCCNC(=N)N)NC(=O)[C@H](CCCNC(=N)N)NC(=O)[C@@H](N)CCCNC(=N)N)C(N)=O"
  IC50: "26 nM"
- mol: "N=C(N)NCCC[C@H](NC(=O)[C@H](CCCNC(=N)N)NC(=O)[C@H](CCCNC(=N)N)NC(=O)[C@H](CCCNC(=N)N)NC(=O)[C@H](CCCNC(=N)N)NC(=O)[C@H](CCCNC(=N)N)NC(=O)[C@H](CCCNC(=N)N)NC(=O)[C@H](CCCNC(=N)N)NC(=O)[C@@H](N)CCCNC(=N)N)C(N)=O"
  IC50: "4 nM"

Alright, here's another compound for you.
*Q* Which IC50 value is on record for N=C(N)NCCC[C@H](NC(=O)[C@H](CCCNC(=N)N)NC(=O)[C@H](CCCNC(=N)N)NC(=O)[C@H](CCCNC(=N)N)NC(=O)[C@H](CCCNC(=N)N)NC(=O)[C@H](CCCNC(=N)N)NC(=O)[C@H](CCCNC(=N)N)NC(=O)[C@H](CCCNC(=N)N)NC(=O)[C@H](CCCNC(=N)N)NC(=O)[C@@H](N)CCCNC(=N)N)C(N)=O ?
*A* 7 nM

###

Test: Resistance to simulated gastric fluid
Format: in vitro ADME
Conditions: pig, simulated gastric fluid with porcine pepsin; simulated gastric fluid pH 2.01, 1 hr; read-out: % of intact peptide observed
Description: Test 14 Arg peptides consisting of 14 contiguous L- or D-arginine amino acids were tested for resistance to simulated gastric fluid (porcine pepsin in a HCl and NaCl solution) at a pH of 2.01 for a period of 24 hours. Negligible degradation of each peptide was observed by exposure to the simulated gastric fluid over the 24 hour test period.
readout label: remaining at 1 h (%)
All answers are understood in %, so give the number only.

- mol: "N=C(N)NCCC[C@H](NC(=O)[C@H](CCCNC(=N)N)NC(=O)[C@H](CCCNC(=N)N)NC(=O)[C@H](CCCNC(=N)N)NC(=O)[C@H](CCCNC(=N)N)NC(=O)[C@H](CCCNC(=N)N)NC(=O)[C@H](CCCNC(=N)N)NC(=O)[C@H](CCCNC(=N)N)NC(=O)[C@H](CCCNC(=N)N)NC(=O)[C@H](CCCNC(=N)N)NC(=O)[C@H](CCCNC(=N)N)NC(=O)[C@H](CCCNC(=N)N)NC(=O)[C@H](CCCNC(=N)N)NC(=O)[C@@H](N)CCCNC(=N)N)C(N)=O"
  units text: "%"
  observed result: 99.5

Alright, here's another compound for you.
*Q* Which remaining at 1 h value is on record for N=C(N)NCCC[C@@H](N)C(=O)N[C@H](CCCNC(=N)N)C(=O)N[C@H](CCCNC(=N)N)C(=O)N[C@H](CCCNC(=N)N)C(=O)N[C@H](CCCNC(=N)N)C(=O)N[C@H](CCCNC(=N)N)C(=O)N[C@H](CCCNC(=N)N)C(=O)N[C@H](CCCNC(=N)N)C(=O)N[C@H](CCCNC(=N)N)C(=O)N[C@H](CCCNC(=N)N)C(=O)N[C@H](CCCNC(=N)N)C(=O)N[C@H](CCCNC(=N)N)C(=O)N[C@H](CCCNC(=N)N)C(=O)N[C@H](CCCNC(=N)N)C(N)=O ?
*A* 98.9
